assay.name: blood-stage malaria parasite viability loss – strain 3D7, DAPI fluorescence, 100 nL, primary screen (AID 1184);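 also: parasites grown inside human red blood cells in medium with human serum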
measurement.context: P. falciparum 3D7 growth, 3 d, higher = more signal
endpoint.name: z-score

INSERT INTO measurements (compound, recorded_result) VALUES
  ('COc1cc(C(O)C2C=CC3C(=O)N(C)C(=O)C3N2NC(=O)OC(C)(C)C)cc(OC)c1OC (stereo not drawn)', -0.361),
  ('COCCCNC(=O)[C@@H]1c2ccccc2C(=O)N(Cc2cc(F)cc(C(F)(F)F)c2)[C@H]1c1ccc(CO)cc1', -0.288),
  ('[N-]=[N+]=NCc1ccccc1[C@H]1OC(c2ccc(OCCCO)cc2)=N[C@@]1(Cc1ccccc1N=[N+]=[N-])C(=O)N1CCCCC1', -2.15),
  ('CC(C)C(CO)N1C(=O)[C@@H]2[C@H]3C(=O)OCC=C[C@H]3OC23C=CCN(Cn2nnc4ccccc42)C(=O)[C@@H]13 (stereo partly drawn)', -0.229),
  ('N#Cc1ccc(NN2C(C(O)c3ccco3)C=CC3C(=O)N(c4ccccc4)C(=O)C32)cc1 (stereo not drawn)', 1.1),
  ('C[N+](C)(C)CCCCNC(=O)[C@H]1C[C@H]2C(=O)NCC(=O)N2[C@H]1c1ccc(O)cc1', 0.258),
  ('CCCN1C(=O)[C@@]2(Cc3ccccc3)N=C(c3ccc(OCCCO)cc3)O[C@H]2c2ccccc21', -2.38),
  ('Cc1ccc(S[C@]2(C(=O)NCc3ccccc3)CC(=O)N(C3Cc4ccccc4C3)[C@@H]2c2ccc(CO)cc2I)cc1', 0.237);

---

target.of.assay: Neurogenic locus notch homolog protein 3 (Homo sapiens) (UniProt Q9UM47)
Sequence (Q9UM47 whole entry, looked up): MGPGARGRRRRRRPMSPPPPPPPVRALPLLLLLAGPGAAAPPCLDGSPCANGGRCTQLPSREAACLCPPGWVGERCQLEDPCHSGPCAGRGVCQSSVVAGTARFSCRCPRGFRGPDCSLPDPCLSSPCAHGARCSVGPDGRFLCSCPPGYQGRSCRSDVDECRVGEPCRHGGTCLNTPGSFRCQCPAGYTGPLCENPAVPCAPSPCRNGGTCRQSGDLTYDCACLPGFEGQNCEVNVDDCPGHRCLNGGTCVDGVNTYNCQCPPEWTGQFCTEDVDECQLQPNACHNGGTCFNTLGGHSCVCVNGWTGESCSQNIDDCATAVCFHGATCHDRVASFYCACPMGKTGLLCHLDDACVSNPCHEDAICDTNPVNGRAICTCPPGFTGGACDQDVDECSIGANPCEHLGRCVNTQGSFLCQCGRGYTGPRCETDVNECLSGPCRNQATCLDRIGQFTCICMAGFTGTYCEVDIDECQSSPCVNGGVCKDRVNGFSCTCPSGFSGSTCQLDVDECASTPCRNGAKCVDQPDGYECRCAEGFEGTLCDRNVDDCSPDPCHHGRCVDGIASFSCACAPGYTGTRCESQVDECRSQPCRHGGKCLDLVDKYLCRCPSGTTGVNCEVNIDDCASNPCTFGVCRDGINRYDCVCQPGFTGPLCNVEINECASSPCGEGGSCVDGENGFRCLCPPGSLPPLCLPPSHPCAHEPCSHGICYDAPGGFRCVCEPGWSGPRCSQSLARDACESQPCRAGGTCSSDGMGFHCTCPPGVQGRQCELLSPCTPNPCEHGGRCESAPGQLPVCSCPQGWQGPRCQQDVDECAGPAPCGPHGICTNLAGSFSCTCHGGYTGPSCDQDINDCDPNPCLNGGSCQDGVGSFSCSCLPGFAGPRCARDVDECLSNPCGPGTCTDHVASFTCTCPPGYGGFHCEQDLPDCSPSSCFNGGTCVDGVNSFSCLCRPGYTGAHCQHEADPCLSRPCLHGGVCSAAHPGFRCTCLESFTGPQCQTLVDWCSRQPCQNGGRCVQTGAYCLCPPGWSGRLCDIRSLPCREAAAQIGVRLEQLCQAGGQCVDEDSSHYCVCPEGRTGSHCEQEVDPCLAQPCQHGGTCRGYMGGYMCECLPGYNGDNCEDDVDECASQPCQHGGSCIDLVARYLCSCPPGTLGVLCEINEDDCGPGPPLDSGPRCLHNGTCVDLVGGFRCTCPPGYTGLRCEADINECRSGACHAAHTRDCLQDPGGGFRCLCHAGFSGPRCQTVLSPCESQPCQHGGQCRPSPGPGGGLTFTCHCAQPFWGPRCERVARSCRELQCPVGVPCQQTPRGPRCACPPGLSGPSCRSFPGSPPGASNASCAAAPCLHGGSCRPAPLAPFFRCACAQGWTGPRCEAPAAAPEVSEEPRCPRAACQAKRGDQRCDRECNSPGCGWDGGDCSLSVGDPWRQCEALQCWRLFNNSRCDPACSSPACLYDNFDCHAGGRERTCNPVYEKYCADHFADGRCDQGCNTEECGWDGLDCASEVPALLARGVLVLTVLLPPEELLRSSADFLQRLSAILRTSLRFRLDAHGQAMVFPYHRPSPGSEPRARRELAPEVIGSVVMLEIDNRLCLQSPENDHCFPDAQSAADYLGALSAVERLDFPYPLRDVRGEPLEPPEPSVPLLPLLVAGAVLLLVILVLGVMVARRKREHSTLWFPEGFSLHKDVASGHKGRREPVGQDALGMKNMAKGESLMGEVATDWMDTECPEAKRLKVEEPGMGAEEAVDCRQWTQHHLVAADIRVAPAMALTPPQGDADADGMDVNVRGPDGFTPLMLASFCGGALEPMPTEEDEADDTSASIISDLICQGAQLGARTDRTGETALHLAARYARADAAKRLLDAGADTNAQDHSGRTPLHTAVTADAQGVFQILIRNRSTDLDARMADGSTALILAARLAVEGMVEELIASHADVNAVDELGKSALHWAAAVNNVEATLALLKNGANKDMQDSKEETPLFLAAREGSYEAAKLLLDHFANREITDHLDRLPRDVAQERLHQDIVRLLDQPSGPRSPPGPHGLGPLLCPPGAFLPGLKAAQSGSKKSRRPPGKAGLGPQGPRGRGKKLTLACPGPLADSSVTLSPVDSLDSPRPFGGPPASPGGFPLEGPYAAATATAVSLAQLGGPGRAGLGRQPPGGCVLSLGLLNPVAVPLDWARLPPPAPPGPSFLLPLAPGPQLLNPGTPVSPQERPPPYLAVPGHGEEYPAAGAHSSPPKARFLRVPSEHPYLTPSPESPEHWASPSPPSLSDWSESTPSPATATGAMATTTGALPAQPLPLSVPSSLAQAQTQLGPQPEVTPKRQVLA
assay.name: small molecules binding NOTCH3 protein – biochemical, 635/667 nm fluorescence, primary screen (AID 1096)
measurement.context: small-molecule microarray, 635 nm fluorescence, higher = more signal
Rule: composite z-score under 0.6 gives criterion not met, otherwise criterion met.

INSERT INTO results (molecule, category) VALUES
  ('O=C1O[C@H](c2ccccc2)[C@H](c2ccccc2)N2[C@H]1[C@@H](C(=O)NC[C@H](O)c1ccccc1)[C@]1(C(=O)Nc3ccccc31)[C@H]2c1ccccc1OCCO', 'criterion met'),
  ('CCCC=C(CCC)[C@@H](NC(=O)Cc1ccccc1)c1ccc(C(=O)OC)cc1', 'criterion not met'),
  ('N#Cc1ccc(NN2C(C(O)c3ccccc3)C=CC3C(=O)N(c4ccccc4)C(=O)C32)cc1 (configuration not stated)', 'criterion not met'),
  ('Cc1ccc(S[C@]2(C(=O)O)CC(=O)N(Cc3ccccc3C(F)(F)F)[C@@H]2c2ccc(CO)cc2)cc1', 'criterion not met'),
  ('CC(C)C[C@@H]1NC(=O)[C@@H]2C[C@H](C(=O)NCCCC[N+](C)(C)C)[C@H](c3cccc(OCCO)c3)N2C1=O', 'criterion met'),
  ('O=C1c2ccccc2[C@](Cc2ccccc2I)(C(=O)NC2CC2)[C@H](c2ccc(CO)cc2)N1Cc1ccccc1Cl', 'criterion met'),
  ('O=C1O[C@H](c2ccccc2)[C@H](c2ccccc2)N2[C@H]1[C@@H](C(=O)N1CCN(c3ncccn3)CC1)[C@]1(C(=O)Nc3ccc(C#CCCO)cc31)[C@H]2c1ccc(OCCO)cc1', 'criterion met');

---

assay.name: plasmodial surface anion channel blockers, osmotic lysis – cell-based, P. falciparum Indochina, OD700, 1 h, primary screen (AID 1154)
measurement.context: P. falciparum Indochina infected RBC osmotic lysis, higher = more signal, called active from +8 up or from −8 down
Calls of active or inactive are those of the source.
endpoint.name: z-score

INSERT INTO assay_data (compound, recorded_result) VALUES
  ('C=CCOC(=O)[C@@H]1[C@H]2C(=O)O[C@H](c3ccccc3)[C@H](c3ccccc3)N2[C@H](c2ccc(OCCOC(=O)[C@@H]3C[C@@H]4C(=O)N5CCC[C@H]5C(=O)N4[C@@H]3c3cccc(OCCO)c3)cc2)[C@@]12C(=O)Nc1ccc(I)cc12', '3.47 (inactive)'),
  ('CCCCC(=C=CC[C@H](O)c1ccccc1OCCO)C[C@H](O)c1ccccn1', '4.7 (inactive)'),
  ('C[N+](C)(C)CCCCCCNC(=O)[C@@H]1C[C@@H]2C(=O)NCC(=O)N2[C@@H]1c1ccc(O)cc1', '0.451 (inactive)'),
  ('O=C1C2C=CC(C(O)c3ccc(Br)cc3)N(Nc3ccccc3)C2C(=O)N1c1ccccc1 (centres undefined)', '8.27 (active)'),
  ('COC(=O)[C@@]1(Cc2ccccc2)[C@H]2c3cc(C(=O)N(C)C)n(Cc4ccccn4)c3C[C@H]2CN1C(=O)c1ccccc1', '1.32 (inactive)'),
  ('C=CCNC(=O)[C@@H]1[C@H]2C(=O)O[C@H](c3ccccc3)[C@H](c3ccccc3)N2[C@H](c2ccc(O)cc2)[C@@]12C(=O)Nc1ccc(C#CCCO)cc12', '2.1 (inactive)'),
  ('CC1CC/C=C\[C@H]2OC34C=CCN(Cc5ccccc5)C(=O)[C@H]3N(CCO)C(=O)[C@@H]4C2C(=O)O1 (some centres undefined)', '3.52 (inactive)'),
  ('COc1ccc([Si](C)(C)[C@@H]2[C@@H](CCO)O[C@]3(C(=O)N(Cc4ccccc4)c4ccc(N5C(=O)COc6ccccc65)cc43)[C@H]2C)cc1', '3.28 (inactive)'),
  ('C[C@H]1NC(=O)C([C@@H](C)OCc2ccccc2)NC(=O)[C@@]23C(=O)N[C@@H](Cc4ccccc4)C2[C@H](C)[C@@]2(C)O[C@H]2C3/C=C/CC/C=C/CNC1=O (some centres undefined)', '1.79 (inactive)'),
  ('CCOC(=O)C[C@H]1[C@H](OC(=O)Cc2ccc3c(c2)OCO3)[C@@H](NC(=O)c2ccccc2)c2cc(OCCCO)ccc2N1C(=O)c1ccc2ccccc2n1', '6.69 (inactive)'),
  ('O=C1c2ccccc2C(=O)C2CC([C@H]3Oc4ccccc4S(=O)(=O)N4CCC[C@@H]34)=CCC12 (some centres undefined)', '8 (inactive)'),
  ('COCC(=C=CC[C@@H](O)c1ccccc1OCCO)C[C@@H](O)c1ccccn1', '8.59 (active)'),
  ('COc1cc(C(O)C2C=CC3C(=O)NC(=O)C3N2Nc2ccc(Cl)cc2Cl)cc(OC)c1OC (centres undefined)', '1.94 (inactive)'),
  ('COCCOC(=O)N1C(=O)[C@@]2(c3cc(C#CC4(O)CCCCCC4)ccc31)[C@H](C(=O)N1CCN(c3ncccn3)CC1)[C@H]1C(=O)O[C@H](c3ccccc3)[C@H](c3ccccc3)N1[C@@H]2c1ccc(O)cc1', '0.71 (inactive)');
